Cited source: paper PMC7118210

# measurement_notes: Single ascending dose and food-effect pharmacokinetics of naringin tablets in healthy humans
# Assay type: in vivo, human
# reported_conditions: female, human, plasma, po, 160 mg, naringin 160 mg p.o. single dose, high-fat diet group, human, female
reported_metric: AUC(0-inf)
Just the number plus its unit, please.

For C[C@@H]1O[C@@H](O[C@H]2[C@H](Oc3cc(O)c4c(c3)O[C@H](c3ccc(O)cc3)CC4=O)O[C@H](CO)[C@@H](O)[C@@H]2O)[C@H](O)[C@H](O)[C@H]1O [naringin, Naringin] the compound record lists AUC(0-inf) as 20.9 ng·h/mL

---

# measurement_notes: Single ascending dose and food-effect pharmacokinetics of naringin tablets in healthy humans
# Format: in vivo, human
# reported_conditions: female, human, plasma, po, 160 mg, naringin 160 mg p.o. single dose, high-fat diet group, human, female
reported_metric: Cmax (ng/mL)
Give a bare numeral; the unit ng/mL is implied.

For C[C@@H]1O[C@@H](O[C@H]2[C@H](Oc3cc(O)c4c(c3)O[C@H](c3ccc(O)cc3)CC4=O)O[C@H](CO)[C@@H](O)[C@@H]2O)[C@H](O)[C@H](O)[C@H]1O the compound record lists Cmax as 3.78
